- assay_target: T1, human GPC3-his tag protein (human, UniProt P51654 25-559, limits assumed)
- T1 construct: recombinant soluble antigen used as analyte in all Biacore runs; also called recombinant GPC3 protein; rhGPC3-His; not shown: His tag
- assay: SPR Biacore 8K, mAb captured, one or two doses GPC3-his
parameter: Kd (nM)
Give bare numbers, in nM.

Some entries whose results are on file:
{"binder": "52H5D3B8-10# chimeric mAb (antibody, V domains shown, CDR3 mutant of the 52H5D3B8 chimeric mAb (human IgG1)) VH: QVQLQQSGAELVRPGASVKLSCKALGYTFTDYEMHWVKQTPVHGLEWIGAIHPGSGGTAYNQKFKGKATLTADKFSSTGYMELSSLTSEDSAVYYCTRFYSYAYWGQGTLVTVSA VL: DVVMTQTPLSLPVSLGDQASISCRSSQSLVHSNGNTYLQWYLQKPGQSPKLLIYKVSNRFSGVPDRFSGSGSGTDFILKISRVEAEDLGVYFCFQSTHVPYTFGGGTKLEIK", "Kd / nM": 4.05}
{"binder": "52H5D3B8-11# chimeric mAb (antibody, V domains shown, CDR3 mutant of the 52H5D3B8 chimeric mAb (human IgG1)) VH: QVQLQQSGAELVRPGASVKLSCKALGYTFTDYEMHWVKQTPVHGLEWIGAIHPGSGGTAYNQKFKGKATLTADKFSSTGYMELSSLTSEDSAVYYCTRFYSFAYWGQGTLVTVSA VL: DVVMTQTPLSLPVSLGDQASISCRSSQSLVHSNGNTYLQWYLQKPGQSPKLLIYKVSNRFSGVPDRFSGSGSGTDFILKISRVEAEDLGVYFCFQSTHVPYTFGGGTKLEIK", "Kd / nM": 10.9}
{"binder": "52H5D3B8-3# chimeric mAb (antibody, V domains shown, CDR3 mutant of the 52H5D3B8 chimeric mAb (human IgG1)) VH: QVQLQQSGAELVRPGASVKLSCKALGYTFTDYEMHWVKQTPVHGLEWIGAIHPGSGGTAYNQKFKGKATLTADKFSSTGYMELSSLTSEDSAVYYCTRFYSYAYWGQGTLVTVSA VL: DVVMTQTPLSLPVSLGDQASISCRSSQSLVHSNGNTYLQWYLQKPGQSPKLLIYKVSNRFSGVPDRFSGSGSGTDFILKISRVEAEDLGVYFCFQSIHVPYTFGGGTKLEIK", "Kd / nM": 1.06}
{"binder": "52H5D3B8-6# chimeric mAb (antibody, V domains shown, CDR3 mutant of the 52H5D3B8 chimeric mAb (human IgG1); also called 52H5D3B8-6#-VH+VL) VH: QVQLQQSGAELVRPGASVKLSCKALGYTFTDYEMHWVKQTPVHGLEWIGAIHPGSGGTAYNQKFKGKATLTADKFSSTGYMELSSLTSEDSAVYYCTRYYSYAYWGQGTLVTVSA VL: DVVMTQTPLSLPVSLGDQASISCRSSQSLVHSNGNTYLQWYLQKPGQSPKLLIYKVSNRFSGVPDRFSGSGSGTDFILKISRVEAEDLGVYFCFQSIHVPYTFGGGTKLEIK", "Kd / nM": 0.368}

Kindly consider the entry below.
Query: What does the data say about its Kd? Entry: 52H5D3B8-4# chimeric mAb (antibody, V domains shown, CDR3 mutant of the 52H5D3B8 chimeric mAb (human IgG1)) VH: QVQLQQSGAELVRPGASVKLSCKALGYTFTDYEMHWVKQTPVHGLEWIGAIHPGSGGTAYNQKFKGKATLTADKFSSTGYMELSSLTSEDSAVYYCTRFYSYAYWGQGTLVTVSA VL: DVVMTQTPLSLPVSLGDQASISCRSSQSLVHSNGNTYLQWYLQKPGQSPKLLIYKVSNRFSGVPDRFSGSGSGTDFILKISRVEAEDLGVYFCSQSTHVPYTFGGGTKLEIK
Reply: 1.72
